Protocol Description: A qHTS for Small Molecule Inhibitors of Shiga Toxin
Protocol Conditions: Vero cells, Shiga toxin protein synthesis inhibition reporter; at 38.7 µM
The campaign covered roughly 290,000 compounds. About 27,000 (9.3%) were called active. Cut-off read from the data, not from the text of the source: active = inhibition mostly above about 28% (no sharp cut-off); inactive = mostly below about 43%. Many of the other results were omitted from the sample, so actives are more common in it than they were.
Would you mind answering with one of these outcomes? YES for active, NO for inactive

• Nc1nc(SCC(=O)Nc2ccc(Cl)cc2C(F)(F)F)n[nH]1 = NO

### Prompt Just curious, what result did Cc1ccc(C(=O)NCC(=O)OCC(=O)NC2CCCCCCC2)cc1 get here?
### Response NO

### Prompt Just curious, what result did COc1ccc(-n2nc(C(=O)NCC(=O)N3CCCCCC3)c3ccccc3c2=O)cc1Cl get here?
### Response NO
